biological target: hV1a receptor (Homo sapiens); construct: expressed in transfected cells; host or cells: HEK-293; assay: hV1a receptor transcriptional reporter (luciferase) agonist assay; type: cell-based; settings: HEK-293 cells transiently transfected with hV1a receptor, 5 hours exposure, geometric mean; read-out: EC50 hV1a receptor
Sequence (P37288 whole entry): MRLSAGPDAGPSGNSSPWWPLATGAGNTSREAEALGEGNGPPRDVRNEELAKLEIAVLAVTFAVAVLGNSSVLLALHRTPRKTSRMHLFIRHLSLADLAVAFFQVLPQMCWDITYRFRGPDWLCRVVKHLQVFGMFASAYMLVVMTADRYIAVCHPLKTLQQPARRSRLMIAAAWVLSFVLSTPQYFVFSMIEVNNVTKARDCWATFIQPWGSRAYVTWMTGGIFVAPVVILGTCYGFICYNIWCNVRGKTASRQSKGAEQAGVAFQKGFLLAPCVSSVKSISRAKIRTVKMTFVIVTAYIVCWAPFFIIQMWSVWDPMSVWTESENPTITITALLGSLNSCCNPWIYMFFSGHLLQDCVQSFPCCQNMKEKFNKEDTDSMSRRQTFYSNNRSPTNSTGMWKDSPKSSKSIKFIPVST
Starred links: 1 amine or outer side, 2 acyl side, 3 side chain; linkers in the order of their positions; H or OH if unused. Positions of bridges follow the written chain, without caps; N, C: chain ends. Non-standard residues stand in square brackets, D forms with d. Residues, ends and D or L forms follow the SMILES beside them. *: point of attachment. Orn(Me) = CN(CCC[C@H](N[*:1])C(=O)[*:2])[*:3]; Ala(2-furyl) = N[C@@H](Cc1ccco1)C(=O)O; 3Thi = N[C@@H](Cc1ccsc1)C(=O)O; NHCH(CH2OH)2 = OCC(CO)N*; Orn = NCCC[C@H](N)C(=O)O; Dab = NCC[C@H](N)C(=O)O; NHOH = ON*
quantity kind: EC50 (nM)
State the answer as a number, implicitly in nM.

Solved entries (count: 3):
compound	EC50, nM
CC[C@H](C)[C@@H]1NC(=O)[C@H](Cc2ccsc2)NC(=O)[C@@H](N)CSSC[C@@H](C(=O)N2CCC[C@H]2C(=O)N[C@@H](CCN)C(=O)NCC(N)=O)NC(=O)[C@H](CC(N)=O)NC(=O)[C@H](CC(N)=O)NC1=O [Compound 37] (H-C[3Thi]INNCP[Dab]G-NH2; disulfide 1-6; N-terminus and C-terminus assumed)	7.45
CC[C@H](C)[C@@H]1NC(=O)[C@H](Cc2ccco2)NC(=O)[C@@H](N)CSSC[C@@H](C(=O)N2CCC[C@H]2C(=O)N[C@@H](CCN)C(=O)NCC(N)=O)NC(=O)[C@H](CC(N)=O)NC(=O)[C@H](CCC(N)=O)NC1=O [Compound 26] (H-C[Ala(2-furyl)]IQNCP[Dab]G-NH2; disulfide 1-6; N-terminus and C-terminus assumed)	2.24
CC[C@H](C)[C@@H]1NC(=O)[C@H](Cc2ccccc2)NC(=O)[C@@H](N)CSSC[C@@H](C(=O)N2CCC[C@H]2C(=O)N[C@@H](CCCN)C(=O)NCC(N)=O)NC(=O)[C@H](CC(N)=O)NC(=O)[C@H](CC(=O)NC(CO)CO)NC1=O [Compound 27] (H-CFID(NHCH(CH2OH)2)NCP[Orn]G-NH2; disulfide 1-6; N-terminus and C-terminus assumed)	16.2

Entry CC[C@H](C)[C@@H]1NC(=O)[C@H](Cc2ccccc2)NC(=O)[C@@H](N)CSSC[C@@H](C(=O)N2CCC[C@H]2C(=O)N[C@@H](CCCN)C(=O)NCC(N)=O)NC(=O)[C@H](CC(N)=O)NC(=O)[C@H](CCC(=O)NO)NC1=O [Compound 16] (H-CFIE(NHOH)NCP[Orn]G-NH2; disulfide 1-6; N-terminus and C-terminus assumed) ; EC50 = 11.9

Entry CC[C@H](C)[C@@H]1NC(=O)[C@H](Cc2ccco2)NC(=O)[C@@H](N)CSSC[C@@H](C(=O)N2CCC[C@H]2C(=O)N[C@@H](CCCN)C(=O)NCC(N)=O)NC(=O)[C@H](CC(N)=O)NC(=O)[C@H](CC(N)=O)NC1=O [Compound 38] (H-C[Ala(2-furyl)]INNCP[Orn]G-NH2; disulfide 1-6; N-terminus and C-terminus assumed) ; EC50 = 10.1

Entry CC[C@H](C)[C@@H]1NC(=O)[C@H](Cc2ccccc2)NC(=O)[C@@H](N)CSSC[C@@H](C(=O)N2CCC[C@H]2C(=O)N[C@@H](CCCNC)C(=O)NCC(N)=O)NC(=O)[C@H](CC(N)=O)NC(=O)[C@H](CC(N)=O)NC1=O [Compound 46] (H-CFINNCP[Orn(Me)]G-NH2; disulfide 1-6; N-terminus and C-terminus assumed) ; EC50 = 2.41
